This collection of values is drawn from paper PMC3793931.

- ASSAY_SYSTEM: 5-LO in PMNL (Homo sapiens, UniProt P09917)
- Sequence (P09917 whole entry): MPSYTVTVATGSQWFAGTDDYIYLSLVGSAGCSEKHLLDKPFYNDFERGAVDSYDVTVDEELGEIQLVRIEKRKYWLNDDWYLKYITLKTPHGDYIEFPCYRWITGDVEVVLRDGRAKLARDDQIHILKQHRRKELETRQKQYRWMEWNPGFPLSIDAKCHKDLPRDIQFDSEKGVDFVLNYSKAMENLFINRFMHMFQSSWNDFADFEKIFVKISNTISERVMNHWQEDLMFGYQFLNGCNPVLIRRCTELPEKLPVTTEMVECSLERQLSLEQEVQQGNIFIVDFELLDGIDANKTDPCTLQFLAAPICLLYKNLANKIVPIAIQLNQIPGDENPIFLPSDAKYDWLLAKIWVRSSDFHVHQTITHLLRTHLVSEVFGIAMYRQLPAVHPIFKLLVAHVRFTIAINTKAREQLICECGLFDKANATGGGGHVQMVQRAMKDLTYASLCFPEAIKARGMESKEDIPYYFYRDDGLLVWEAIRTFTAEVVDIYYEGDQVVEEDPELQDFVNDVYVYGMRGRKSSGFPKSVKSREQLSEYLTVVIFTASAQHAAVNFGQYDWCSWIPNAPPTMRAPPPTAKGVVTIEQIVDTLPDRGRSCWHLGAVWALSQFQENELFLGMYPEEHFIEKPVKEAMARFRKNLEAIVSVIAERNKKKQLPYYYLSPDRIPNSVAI
- EXPERIMENT_DESCRIPTION: cell-based
- CONDITION: intact human PMNL, A23187 2.5 µM + 20 µM AA, n=3, >10 = significant inhibition at 10 µM, >>10 = no significant inhibition at 10 µM
Parameter: IC50. Scope: all listed entries.

Example cases with answers are listed next.
>  <COMPOUND>
CCOC(=O)c1c(C)cc(O)c(C=O)c1O [compound 1, ethyl haematommate]

>  <IC50>
> 10 µM

$$$$
>  <COMPOUND>
CCCCCc1cc(OC)cc(O)c1C(=O)OCC [compound 7, ethyl-4-O-methylolivetolcarboxylate]

>  <IC50>
> 10 µM

$$$$

Could you now look at the following compound, please?
Record request: IC50 value, item `CCCCCc1cc(O)cc(OC)c1`
> 10 µM

---

Entries annotated with measured IC50
- ASSAY_SYSTEM: human recombinant 5-LO (Homo sapiens)
- Sequence (P09917 whole entry): as above
- EXPERIMENT_DESCRIPTION: cell-free 5-LO activity assay with purified human recombinant 5-LO

>  <COMPOUND>
CCCCCc1cc(OC(=O)c2c(O)cc(OC)cc2CCCCC)cc(O)c1C(=O)O [compound 5, perlatolic acid]

>  <ASSAY_SYSTEM>
human recombinant 5-LO (Homo sapiens)

>  <IC50>
0.4 µM

$$$$
>  <COMPOUND>
CCCCCc1cc(OC)cc(O)c1C(=O)O [compound 6, 4-O-metylolivetolcarboxylic acid]

>  <ASSAY_SYSTEM>
human recombinant 5-LO (Homo sapiens)

>  <IC50>
> 10 µM

$$$$
>  <COMPOUND>
CCCCCc1cc(OC)cc(O)c1C(=O)OCC [compound 7, ethyl-4-O-methylolivetolcarboxylate]

>  <ASSAY_SYSTEM>
human recombinant 5-LO (Homo sapiens)

>  <IC50>
> 10 µM

$$$$
>  <COMPOUND>
CCCCCc1cc(O)cc(OC)c1 [compound 9, olivetolmonomethylether]

>  <ASSAY_SYSTEM>
human recombinant 5-LO (Homo sapiens)

>  <IC50>
7.2 µM

$$$$
>  <COMPOUND>
CCCCCc1cc(OC)cc(O)c1C(=O)Oc1cc(O)c(C(=O)O)c(CCC)c1 [compound 4, imbricaric acid]

>  <ASSAY_SYSTEM>
human recombinant 5-LO (Homo sapiens)

>  <IC50>
3.5 µM

$$$$
>  <COMPOUND>
CCCCCc1cc(O)cc(O)c1C(=O)OCC [compound 8, ethyl olivetolate]

>  <ASSAY_SYSTEM>
human recombinant 5-LO (Homo sapiens)

>  <IC50>
> 10 µM

$$$$

Give the measured IC50 of COC(=O)c1c(C)cc(OC(=O)c2c(C)cc(O)c(C=O)c2O)c(C)c1O [compound 3, atranorin] .
> 10 µM

Could you share which IC50 value was measured for CCOC(=O)c1c(C)cc(O)c(C=O)c1O [compound 1, ethyl haematommate] ?
7.6 µM

Which IC50 value is on record for COC(=O)c1c(C)cc(O)c(C)c1O [compound 2, methylbetaorcinolcarboxylate] ?
> 10 µM

---

- ASSAY_SYSTEM: microsomal prostaglandin E2 synthase-1 (mPGES-1) (Homo sapiens)
- Sequence (O14684 1-152): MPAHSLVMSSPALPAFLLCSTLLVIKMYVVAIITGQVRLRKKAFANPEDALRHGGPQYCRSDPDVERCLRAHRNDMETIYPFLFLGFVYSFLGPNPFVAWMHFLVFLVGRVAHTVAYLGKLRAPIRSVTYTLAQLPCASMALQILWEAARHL
compounds and their reported IC50

For orientation, consider the following solved cases.
>  <COMPOUND>
COC(=O)c1c(C)cc(O)c(C)c1O [compound 2, methylbetaorcinolcarboxylate]

>  <ASSAY_RESULT>
> 10 µM

$$$$
>  <COMPOUND>
CCCCCc1cc(OC)cc(O)c1C(=O)OCC [compound 7, ethyl-4-O-methylolivetolcarboxylate]

>  <ASSAY_RESULT>
> 10 µM

$$$$

Tell me reported IC50 for CCCCCc1cc(OC(=O)c2c(O)cc(OC)cc2CCCCC)cc(O)c1C(=O)O [compound 5, perlatolic acid] , tested with microsomal prostaglandin E2 synthase-1 (mPGES-1) (Homo sapiens).
0.4 µM

What IC50 appears in the records for this compound with microsomal prostaglandin E2 synthase-1 (mPGES-1) (Homo sapiens)? CCCCCc1cc(OC)cc(O)c1C(=O)Oc1cc(O)c(C(=O)O)c(CCC)c1 [compound 4, imbricaric acid]
1.9 µM

Form field - read-out: IC50; system: microsomal prostaglandin E2 synthase-1 (mPGES-1) (Homo sapiens); submitted item: CCCCCc1cc(O)cc(O)c1 [compound 10, olivetol]
> 10 µM

Test system microsomal prostaglandin E2 synthase-1 (mPGES-1) (Homo sapiens); read-out IC50; what value for CCOC(=O)c1c(C)cc(O)c(C=O)c1O [compound 1, ethyl haematommate] ?
> 10 µM

GET /values?readout=IC50&system=microsomal prostaglandin E2 synthase-1 (mPGES-1) (Homo sapiens)&item= CCCCCc1cc(O)cc(O)c1C(=O)OCC [compound 8, ethyl olivetolate]
> 10 µM

Kindly state the measured IC50 obtained for CCCCCc1cc(O)cc(OC)c1 [compound 9, olivetolmonomethylether] with microsomal prostaglandin E2 synthase-1 (mPGES-1) (Homo sapiens).
> 10 µM

Hello, I am looking for reported IC50 with microsomal prostaglandin E2 synthase-1 (mPGES-1) (Homo sapiens) for COC(=O)c1c(C)cc(OC(=O)c2c(C)cc(O)c(C=O)c2O)c(C)c1O [compound 3, atranorin] . Could you help?
> 10 µM

Request - read-out IC50 | tested on microsomal prostaglandin E2 synthase-1 (mPGES-1) (Homo sapiens) | compound CCCc1cc(O)cc(O)c1 [compound 11, divarinol]
> 10 µM
